- EXPERIMENTAL DETAILS: qHTS assay to test for compound auto fluorescence at 535 nm (green) in HepG2 cells (AID 720675); note: % is set by controls: 0 for no effect and ±100 for the full control effect
- MEASUREMENT CONDITIONS: green autofluorescence 485/535 nm, 1 h; series mostly up to 91.3 µM
Calls of active or inactive are those of the source. Calls come from the whole dose curve; as a rule, active = well fitted curve in the direction sought with a large enough effect in the repeat runs; inconclusive = weak or mixed curves; inactive = flat fitted curve, though single readings scatter.
ENDPOINT LABEL: fluorescence, % of fluorescein control

O=C(Cl)c1ccccc1 :: inactive
C#CCOC(=O)/C=C(C)/C=C/CC(C)CCCC(C)C (stereo not drawn) :: inactive
C=C(C)[C@H]1CN[C@H](C(=O)O)[C@H]1CC(=O)O :: inactive
CN(CCO)CCO :: inactive
CC(Cc1ccccc1)NCCn1cnc2c1c(=O)n(C)c(=O)n2C (stereo not drawn) :: inactive

Items follow; give fluorescence, % of fluorescein control for each.
1. Cc1ccc2cc(C)ccc2c1
2. CCNc1nc(NCC)nc(SC)n1
3. NCC1(CC(=O)O)CCCCC1
4. CC(C)N(Cc1ccccc1)C(=O)C(C)(C)C
5. O=C(Cl)/C=C/C(=O)Cl

// result
1: inactive; 2: inactive; 3: 0.0214% [at 18.6 µM] (inactive); 4: inactive; 5: inactive

Dear colleague, could you send me fluorescence, % of fluorescein control for each of the items below? Thanks.
1. O=[N+]([O-])CCO
2. Clc1nc(Cl)nc(Nc2ccccc2Cl)n1
3. COc1cccc(C=O)c1
4. N=C(N)[Se]
5. O=C(O)c1c(Cl)ccc2cc(Cl)cnc12
6. O=CCCl
7. CCOP(=S)(OCC)SCCl

// result
["inactive", "inactive", "inactive", "inactive", "inactive", "inactive", "inactive"]

For each of the molecules below, state fluorescence, % of fluorescein control.
1. CCC1(c2ccccc2)C(=O)N(COC)C(=O)N(COC)C1=O
2. O=S1(=O)OCCO1
3. C[C@]12C=CC(=O)C=C1CC[C@@H]1[C@@H]2CC[C@@]2(C)[C@H]1CC[C@]2(C)O
4. CN(C)CCN(C)C

// result
inactive
inactive
inactive
inactive

I'm hoping you can list fluorescence, % of fluorescein control for every molecule here, please.
1. COC(=O)c1ccc(CBr)cc1
2. CCNP(=S)(OC)O/C(C)=C/C(=O)OC(C)C (stereo not drawn)
3. Cc1ccc2c(c1)C1CN(C)CCC1N2 (stereo not drawn)
4. ClCC1CO1 (stereo not drawn)
5. COc1ccccc1OC
6. CC(C)(C)NC[C@H](O)c1ccc(O)cc1Cl
7. CC(=NC#N)N(C)Cc1ccc(Cl)nc1

// result
1: inactive; 2: inactive; 3: inactive; 4: inactive; 5: inactive; 6: inactive; 7: inactive

Would you mind listing fluorescence, % of fluorescein control for each of the following molecules?
1. CC(C)C(C)(N)C#N (stereo not drawn)
2. O=C/C=C/c1ccco1
3. COc1ccc2c(C(=O)c3ccc(Cl)cc3)c(C)n(CC(=O)O)c2c1
4. C=C1C[C@@H]2[C@H](CC[C@]3(C)C(=O)CC[C@@H]23)[C@@]2(C)C=CC(=O)C=C12
5. CC(C)[N+](C)(CCC(C(N)=O)(c1ccccc1)c1ccccc1)C(C)C

// result
inactive
inactive
inactive
inactive
-0.0469% [at 18.6 µM] (inactive)
